Quick reference for IC50 among some compounds
Tested on: p-IKKa levels in L363 (NIK translocated multiple myeloma) cells
Assay: Assay 2: Effect of compounds on p-IKKa levels in L363 (NIK translocated multiple myeloma) cells
Assay type: cell-based
Conditions: Homo sapiens, L-363, 6 h, read-out: Assay 2 IC50 (nM), p-IKKa (Ser 176/180) in BAFF stimulated L363 cells with MG132, 6 h; average if tested more than once

compound: CN1CC[C@@](O)(c2cc(-c3cccc(-c4ccnc(Nc5cnn(C)c5)n4)c3F)no2)C1=O
IC50: > 500 nM

compound: CN1CC[C@](O)(c2cn(-c3cccc(-c4ccnc(Nc5cnn(C)c5Cl)n4)n3)cn2)C1=O (single isomer, unassigned)
IC50: 50 to 500 nM

Q: Given the compound CN1CC[C@@](O)(c2cc(-c3cccc(-c4ccnc(Nc5cnn(C)c5)n4)c3)no2)C1=O , what is its reported IC50?
A: > 500 nM

Q: If you can, please state the reported IC50 value of CN1CC[C@@](O)(c2cc(-c3cccc(-c4ccnc(Nc5cc(Cl)n(C)n5)n4)n3)no2)C1=O .
A: 50 to 500 nM

* * *

Each record here notes measured IC50.
System: p-IKKa levels in L363 (NIK translocated multiple myeloma) cells
Test: Assay 2: Effect of compounds on p-IKKa levels in L363 (NIK translocated multiple myeloma) cells
Type: cell-based
Details: Homo sapiens, L-363, 6 h, read-out: Assay 2 IC50 (nM), p-IKKa (Ser 176/180) in BAFF stimulated L363 cells with MG132, 6 h; average if tested more than once
Method: Assay 2: Effect of Compounds on p-IKKa Levels in L363 (NIK Translocated Multiple Myeloma) Cells All compounds tested were dissolved and serially diluted in DMSO, 1:3 dilution for 11 points in an Echo compatible plate. 100% DMSO was added to columns 12 and 24 of the plate to serve as high and low signal controls. This compound plate was used to spot 20 nL of compound or DMSO into a Greiner 384 well TC plate (781080). The final DMSO concentration was 0.3% (v/v) in cell assays. […]

Please review the entries below; each comes with its answer.
molecule: CN1CC[C@@](O)(c2cc(-c3cccc(-c4ccnc(NC5CCC(C(F)(F)F)CC5)n4)n3)no2)C1=O (some centres unmarked)
target_or_system: p-IKKa levels in L363 (NIK translocated multiple myeloma) cells
IC50: > 500 nM
--
molecule: CN1CC[C@@](O)(c2cc(-c3cccc(-c4ccnc(N[C@H]5CC[C@H](O)C5)n4)c3)no2)C1=O
target_or_system: p-IKKa levels in L363 (NIK translocated multiple myeloma) cells
IC50: > 500 nM
--
molecule: CN1CC[C@@](O)(c2cc(-c3cccc(-c4ccnc(Nc5cnn(C)c5N)n4)c3)no2)C1=O
target_or_system: p-IKKa levels in L363 (NIK translocated multiple myeloma) cells
IC50: > 500 nM
--
molecule: CN1C(=O)[C@](O)(c2cc(-c3cccc(-c4ccnc(Nc5cnn(C)c5)n4)n3)no2)[C@H]2C[C@H]21
target_or_system: p-IKKa levels in L363 (NIK translocated multiple myeloma) cells
IC50: 50 to 500 nM
--
molecule: CN(C)CCn1nccc1Nc1nccc(-c2cccc(-c3cc([C@]4(O)CCN(C)C4=O)on3)n2)n1
target_or_system: p-IKKa levels in L363 (NIK translocated multiple myeloma) cells
IC50: > 500 nM
--
molecule: CN1CC[C@@](O)(c2cnn(-c3cccc(-c4ccnc(Nc5cn(CC(F)F)nc5OC5CC5)n4)n3)c2)C1=O
target_or_system: p-IKKa levels in L363 (NIK translocated multiple myeloma) cells
IC50: 50 to 500 nM
--
molecule: C[C@@H](Nc1nccc(-c2cccc(-n3cc([C@]4(O)CCN(C)C4=O)nn3)n2)n1)c1ncccn1 (single isomer, unassigned)
target_or_system: p-IKKa levels in L363 (NIK translocated multiple myeloma) cells
IC50: 50 to 500 nM
--
molecule: CN1CC(F)(F)[C@@](O)(c2cc(-c3cccc(-c4ccnc(Nc5cnn(C)c5Cl)n4)n3)no2)C1=O
target_or_system: p-IKKa levels in L363 (NIK translocated multiple myeloma) cells
IC50: < 50 nM

Q: Please report the recorded IC50 for C[C@H](CF)Nc1nccc(-c2cccc(-c3cc([C@]4(O)CCN(C)C4=O)on3)n2)n1 .
A: 50 to 500 nM

Q: What IC50 value was documented for this molecule, Cc1c(Nc2nccc(-c3cccc(-c4cc([C@]5(O)CCN(C)C5=O)no4)n3)n2)cnn1C ?
A: < 50 nM

Q: Entry CN1CC[C@@](O)(c2cc(-c3cccc(-c4ccnc(Nc5cc(N)n(C)n5)n4)c3)no2)C1=O : reported IC50 = ?
A: > 500 nM

Q: # IC50 lookup, item C[C@H](Nc1nccc(-c2cccc(-c3cc([C@]4(O)CCN(C)C4=O)on3)n2)n1)c1cnnn1C
A: 50 to 500 nM

Q: So what's the measured IC50 for this one? CN1CC[C@@](O)(c2cc(-c3cccc(-c4ccnc(NC5CCOCC5)n4)n3)no2)C1=O
A: 50 to 500 nM

Q: IC50 for CN1CC[C@@](O)(c2cnn(-c3cccc(-c4ccnc(Nc5cnn(C)c5)n4)n3)c2)C1=O (single isomer, unassigned) ?
A: > 500 nM
